Ref: ChEMBL document CHEMBL4622973

System name: UniProtKB Q8N6T7
Protocol: Activation of N-terminal his-tagged human SIRT6 expressed in Escherichia coli M15 [pREP4] assessed as increase in peptide demyristoylation at 20 uM incubated for 120 mins using Ac-EALPKK(Myr)-AMC substrate by FDL assay relative to control
Returns one of YES or NO; YES when Activity is >= 200%.

(Q) Is Activity at least 200%? Consider COC(=O)c1c(NC(=O)c2cc(-c3ccc(OC)c(OC)c3)nc3ccccc23)sc2c1CCCC2
(A) NO

(Q) Is Activity at least 200%? Consider COc1ccc(-c2cc(C(=O)Nc3cccc(Cl)c3Cl)c3ccccc3n2)cc1OC
(A) YES

(Q) Is Activity at least 200%? Consider O=C(Nc1cccc(Cl)c1Cl)c1cc(-c2cc3ccccc3o2)nc2ccccc12
(A) NO

(Q) Is Activity at least 200%? Consider COc1ccc(-c2cc(C(=O)Nc3cccc(F)c3)c3ccccc3n2)cc1OC
(A) NO

(Q) Is Activity at least 200%? Consider O=C(NC(c1ccccc1)c1ccccn1)c1cc(-c2cc3ccccc3o2)nc2ccccc12 (stereo not given)
(A) YES

(Q) Is Activity at least 200%? Consider COc1ccc(-c2cc(C(=O)Nc3ccc(Oc4ccccc4)cc3)c3ccccc3n2)cc1OC
(A) YES

(Q) Is Activity at least 200%? Consider O=C(Nc1cc(C(F)(F)F)cc(C(F)(F)F)c1)c1cc(-c2cc3ccccc3o2)nc2ccccc12
(A) YES

(Q) Is Activity at least 200%? Consider COc1ccc(-c2cc(C(=O)Nc3ccc(F)cc3[N+](=O)[O-])c3ccccc3n2)cc1OC
(A) NO

(Q) Is Activity at least 200%? Consider COc1ccc(-c2cc(C(=O)Nc3ccccc3Cl)c3ccccc3n2)cc1OC
(A) NO

(Q) Is Activity at least 200%? Consider COc1ccc(-c2cc(C(=O)Nc3ccc(C(F)(F)F)cc3)c3ccccc3n2)cc1OC
(A) NO

----------
Record form. Attribute: Activity. Fill in for each entry.
System name: NAD-dependent protein deacylase sirtuin-6 (Homo sapiens, UniProt Q8N6T7)
Sequence (Q8N6T7 whole entry): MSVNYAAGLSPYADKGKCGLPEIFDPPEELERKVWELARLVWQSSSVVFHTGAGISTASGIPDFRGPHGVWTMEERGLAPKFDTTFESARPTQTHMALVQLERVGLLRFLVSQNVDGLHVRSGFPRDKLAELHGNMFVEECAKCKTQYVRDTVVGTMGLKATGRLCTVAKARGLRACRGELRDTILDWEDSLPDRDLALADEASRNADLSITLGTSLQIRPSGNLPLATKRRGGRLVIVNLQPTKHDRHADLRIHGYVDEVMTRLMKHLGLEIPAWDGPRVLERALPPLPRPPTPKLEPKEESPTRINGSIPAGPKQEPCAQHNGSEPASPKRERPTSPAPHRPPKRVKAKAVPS
Protocol: Activation of N-terminal his-tagged human SIRT6 expressed in Escherichia coli M15 [pREP4] assessed as increase in peptide demyristoylation at 20 uM incubated for 120 mins using Ac-EALPKK(Myr)-AMC substrate by FDL assay relative to control
Unit % implied. Number only.

(Q) Recorded Activity of COc1ccc(-c2cc(C(=O)N3CCN(C)CC3)c3ccccc3n2)cc1OC , please.
(A) 105

(Q) Recorded Activity of COc1ccc(-c2cc(C(=O)Nc3ccc4ccccc4c3)c3ccccc3n2)cc1OC , please.
(A) 139

(Q) Recorded Activity of Cc1ccc(-c2cc(C(=O)Nc3cc(C(F)(F)F)ccc3Cl)c3ccccc3n2)c(C)c1 , please.
(A) 92.3

(Q) Recorded Activity of CCOC(=O)c1ccccc1NC(=O)c1cc(-c2ccc(OC)c(OC)c2)nc2ccccc12 , please.
(A) 118

(Q) Recorded Activity of COC(=O)c1c(NC(=O)c2cc(-c3ccc(OC)c(OC)c3)nc3ccccc23)sc(C)c1C , please.
(A) 101

(Q) Recorded Activity of COc1ccc(-c2cc(C(=O)Nc3cccc4ccccc34)c3ccccc3n2)cc1OC , please.
(A) 327

(Q) Recorded Activity of O=C(Nc1cccc(F)c1)c1cc(-c2cc3ccccc3o2)nc2ccccc12 , please.
(A) 216

(Q) Recorded Activity of O=C(Nc1ccc(C(F)(F)F)cc1Cl)c1cc(-c2cc3ccccc3o2)nc2ccccc12 , please.
(A) 287

(Q) Recorded Activity of COc1cccc(NC(=O)c2cc(-c3ccc(OC)c(OC)c3)nc3ccccc23)c1 , please.
(A) 115

(Q) Recorded Activity of COc1ccc(-c2cc(C(=O)Nc3c(C)cc(C)cc3C)c3ccccc3n2)cc1OC , please.
(A) 284
